# ASSAY PROCEDURE: BSK_hDFCGF_SRB: Viability Assessment in the BioMAP Diversity Plus: hDFCGF Assay (AID 2283061);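 further: cells exposed to compound for 24 h before the read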
# TEST CONTEXT: primary human foreskin fibroblasts
Activity calls are given as the source filed them. How the source made its calls: active means hit-call score of the fitted dose curve at least 0.9, where 1 is the maximum; inactive means score below 0.9.
READOUT TYPE: AC50

MOLECULE	RESULT
O=[N+]([O-])c1ccc2c3c(cccc13)CC2	inactive
Oc1cccc2cccnc12	564 nM (active)
COP(=S)(OC)Oc1ccc(Sc2ccc(OP(=S)(OC)OC)cc2)cc1	inactive
O=S(=O)(c1ccc(Cl)cc1)c1ccc(Cl)cc1	inactive
ClC1(Cl)C2(Cl)C3(Cl)C4(Cl)C(Cl)(Cl)C5(Cl)C3(Cl)C1(Cl)C5(Cl)C24Cl (configuration not stated)	inactive
CC(C)(c1ccccc1)c1ccc(O)c(C(C)(C)c2ccccc2)c1	3570 nM (active)

Next item in the queue.
Requested field: AC50. Item: `CC1(C)Cc2cccc(O)c2O1`
inactive

----------
# ASSAYED SYSTEM: X-box-binding protein 1 (Homo sapiens)
# ASSAY PROCEDURE: ATG_Xbp1_CIS: Attagene CIS-FACTORIAL HepG2 Assay for human X-box Binding Protein 1 (XBP1) (AID 2282972)
# TEST CONTEXT: HepG2 XBP1 cis-element reporter, Attagene multiplex; actives raise or lower the signal
Calls of active or inactive are those of the source. The calls were made as follows: active = hit-call score of the fitted dose curve at least 0.9, where 1 is the maximum; inactive = score below 0.9.
The reply should be one of these categories: yes (1) for active, no (0) for inactive

COMPOUND	ASSIGNED LABEL
C=CC#N	no (0)

Assay result, entry `ClCc1ccccn1` — outcome?
yes (1)

Same for `O=c1[nH]c(=O)[nH]c(=O)[nH]1`
no (0)

Field entry: CC(Br)C(=O)O (stereo unspecified)
no (0)

Also, `NC(=S)Nc1ccccc1` please.
no (0)

Same again, this time with `C[C@H]1CCCC(=O)CCC/C=C/c2cc(O)cc(O)c2C(=O)O1`
no (0)

Query CCSC(C)CC1CC(=O)C(C(CC)=NOC/C=C/Cl)=C(O)C1 (stereo unspecified) next
no (0)

Can you handle `ClC1=C(Cl)[C@]2(Cl)[C@@H]3[C@@H](Cl)[C@@H](Cl)C[C@@H]3[C@@]1(Cl)C2(Cl)Cl` next?
no (0)

Record: `CCOP(OCC)OCC`
no (0)

Do the same for `O=C(O)Cc1ccccc1` please
no (0)

Next compound up: `ClCC(Cl)CCl`
no (0)

What do you have for `C[C@]12CC[C@H](O)CC1=CC[C@@H]1[C@@H]2CC[C@]2(C)C(=O)CC[C@@H]12` ?
no (0)

----------
# ASSAY PROCEDURE: ATG_VDRE_CIS: Attagene CIS-FACTORIAL HepG2 Assay for human Vitamin D Receptor Element (VDRE) (AID 2282968)
# TEST CONTEXT: HepG2 VDRE cis-reporter transcription, actives raise or lower the signal
Calls of active or inactive are those of the source. The calls were made as follows: active = hit-call score of the fitted dose curve at least 0.9, where 1 is the maximum; inactive = score below 0.9.
Hi! Could you answer with just one of these? active, inactive

COMPOUND	ASSIGNED LABEL
CCc1ccccc1N	inactive
NC(=S)Nc1ccccc1	inactive
CCCCOCCOC(C)=O	inactive

Okay, next one:
Fill in: this test's call for `Nc1ccc(Cl)cc1C(=O)c1ccccc1` is ___
active

----------
# ASSAY PROCEDURE: ATG_RORE_CIS: Attagene CIS-FACTORIAL HepG2 Assay for human RAR-related Orphan Receptor Element (RORE) (AID 2282959)
# TEST CONTEXT: HepG2 Attagene cis-factorial RORE reporter, mRNA; actives raise or lower the signal
Active and inactive are the calls of the source. Rule for the calls: active = hit-call score of the fitted dose curve at least 0.9, where 1 is the maximum; inactive = score below 0.9.
READOUT TYPE: AC50

As a guide, the following entries are already answered.
MOLECULE	AC50
O=C1CCCN1	inactive
CC(C#N)CCC#N (stereo not drawn)	inactive
Cc1ccccc1C(=O)Nc1cccc(OC(C)C)c1	inactive
COP(=S)(OC)Oc1ccc(Sc2ccc(OP(=S)(OC)OC)cc2)cc1	37.2 µM (active)
COc1ccccc1OC	inactive

Report AC50 for CC(=O)OC(c1ccccc1)C(Cl)(Cl)Cl (stereo not drawn) please.
inactive

Moving on to the next molecule: `CCC[CH2][Sn]([Cl])([Cl])[Cl]`
inactive

Another molecule to look at: `C=CC(=O)OCCCCCC(C)C`
inactive

Now try `CC(C)(C)CC(C)(C)c1ccc(O)cc1` .
inactive

Also, `ClCCBr` please.
inactive

Input CC1(C)CCC(Cc2ccc(Cl)cc2)C1(O)Cn1cncn1 (stereo not drawn)
inactive

Record: `CCN1CCC2(CC1)COc1cc3c(cc12)N(C(=O)c1ccc(-c2ccc(-c4nnc(C)o4)cc2C)cc1)CC3`
inactive

Now this one: `CCOC(=O)Nc1cccc(OC(=O)Nc2ccccc2)c1`
inactive

Continue with `Oc1ccc(-c2ccccc2)cc1`
162 µM (active)

Request: `Cc1ccccc1N`
inactive

Also, `O=Cc1cccc(Oc2ccccc2)c1` please.
inactive

Then `COc1ccc(C=O)cc1OC` ?
inactive

For `Nc1ccc(-c2ccc(N)c(Cl)c2)cc1Cl` then?
24.3 µM (active)
